The entries below pair compounds with Ki values for UniProtKB P32245, as found in several publications.
Sequence (P32245 whole entry): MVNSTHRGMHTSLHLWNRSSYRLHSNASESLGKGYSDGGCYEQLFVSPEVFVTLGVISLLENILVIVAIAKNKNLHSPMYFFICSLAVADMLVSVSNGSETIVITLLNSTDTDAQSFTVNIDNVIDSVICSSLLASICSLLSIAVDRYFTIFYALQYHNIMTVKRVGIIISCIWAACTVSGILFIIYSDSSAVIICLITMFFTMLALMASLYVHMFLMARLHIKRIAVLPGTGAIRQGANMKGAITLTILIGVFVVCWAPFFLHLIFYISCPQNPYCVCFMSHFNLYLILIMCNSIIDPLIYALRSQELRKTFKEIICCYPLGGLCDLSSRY
VALUE_TYPE: Ki (nM)

Solved cases (5 shown):
COMPOUND | Ki, nM
NC(CC(=O)N[C@H](Cc1ccc(Cl)cc1)C(=O)N1CCN(C2(CNC(=O)Cc3ccccc3)CCCCC2)CC1)c1ccccc1 (stereo partly drawn) | 42
CCC(C)[C@H](N)c1cc(C(F)(F)F)ccc1N1CCN(C(=O)CCc2ccc(Cl)cc2)CC1 (stereo partly drawn) | 86
CC(C)[C@H](NC(=O)CCN)c1cccc(F)c1N1CCN(C(=O)[C@@H]2CN(C(C)C)C[C@H]2c2ccc(Cl)cc2)CC1 | 13
NC1CCc2cccc(N3CCN(C(=O)[C@@H](Cc4ccc(Cl)cc4)NC(=O)[C@H]4Cc5ccccc5CN4)CC3)c2C1 (stereo partly drawn) | 240
CCc1cnc(-c2ccccc2CCc2cc(Br)ccc2OC)n1C | 320

(a) CCC(O)(CC)c1ccccc1N1CCN(C(=O)[C@@H](Cc2ccc(Cl)cc2Cl)NC(=O)NC2CC2)CC1
(b) CC(C)C(O)c1ccccc1N1CCN(C(=O)[C@@H](Cc2ccc(Cl)cc2Cl)NC(=O)CCN)CC1 (stereo partly drawn)
Query :: Name the one with the greater Ki value, either a or b as given. Answer format: the label of the selected item.
Result :: b
